study_target: glucan synthase (GS) (Candida albicans, UniProt O13428)
Construct: Extraction of GS activity from membranes was performed at a protein concentration of 5 mg/mL in extraction buffer; endogenous in cells; host or cells: Candida albicans MY1055 (membrane fraction, detergent extract, product entrapment)
Sequence (O13428 1-1897): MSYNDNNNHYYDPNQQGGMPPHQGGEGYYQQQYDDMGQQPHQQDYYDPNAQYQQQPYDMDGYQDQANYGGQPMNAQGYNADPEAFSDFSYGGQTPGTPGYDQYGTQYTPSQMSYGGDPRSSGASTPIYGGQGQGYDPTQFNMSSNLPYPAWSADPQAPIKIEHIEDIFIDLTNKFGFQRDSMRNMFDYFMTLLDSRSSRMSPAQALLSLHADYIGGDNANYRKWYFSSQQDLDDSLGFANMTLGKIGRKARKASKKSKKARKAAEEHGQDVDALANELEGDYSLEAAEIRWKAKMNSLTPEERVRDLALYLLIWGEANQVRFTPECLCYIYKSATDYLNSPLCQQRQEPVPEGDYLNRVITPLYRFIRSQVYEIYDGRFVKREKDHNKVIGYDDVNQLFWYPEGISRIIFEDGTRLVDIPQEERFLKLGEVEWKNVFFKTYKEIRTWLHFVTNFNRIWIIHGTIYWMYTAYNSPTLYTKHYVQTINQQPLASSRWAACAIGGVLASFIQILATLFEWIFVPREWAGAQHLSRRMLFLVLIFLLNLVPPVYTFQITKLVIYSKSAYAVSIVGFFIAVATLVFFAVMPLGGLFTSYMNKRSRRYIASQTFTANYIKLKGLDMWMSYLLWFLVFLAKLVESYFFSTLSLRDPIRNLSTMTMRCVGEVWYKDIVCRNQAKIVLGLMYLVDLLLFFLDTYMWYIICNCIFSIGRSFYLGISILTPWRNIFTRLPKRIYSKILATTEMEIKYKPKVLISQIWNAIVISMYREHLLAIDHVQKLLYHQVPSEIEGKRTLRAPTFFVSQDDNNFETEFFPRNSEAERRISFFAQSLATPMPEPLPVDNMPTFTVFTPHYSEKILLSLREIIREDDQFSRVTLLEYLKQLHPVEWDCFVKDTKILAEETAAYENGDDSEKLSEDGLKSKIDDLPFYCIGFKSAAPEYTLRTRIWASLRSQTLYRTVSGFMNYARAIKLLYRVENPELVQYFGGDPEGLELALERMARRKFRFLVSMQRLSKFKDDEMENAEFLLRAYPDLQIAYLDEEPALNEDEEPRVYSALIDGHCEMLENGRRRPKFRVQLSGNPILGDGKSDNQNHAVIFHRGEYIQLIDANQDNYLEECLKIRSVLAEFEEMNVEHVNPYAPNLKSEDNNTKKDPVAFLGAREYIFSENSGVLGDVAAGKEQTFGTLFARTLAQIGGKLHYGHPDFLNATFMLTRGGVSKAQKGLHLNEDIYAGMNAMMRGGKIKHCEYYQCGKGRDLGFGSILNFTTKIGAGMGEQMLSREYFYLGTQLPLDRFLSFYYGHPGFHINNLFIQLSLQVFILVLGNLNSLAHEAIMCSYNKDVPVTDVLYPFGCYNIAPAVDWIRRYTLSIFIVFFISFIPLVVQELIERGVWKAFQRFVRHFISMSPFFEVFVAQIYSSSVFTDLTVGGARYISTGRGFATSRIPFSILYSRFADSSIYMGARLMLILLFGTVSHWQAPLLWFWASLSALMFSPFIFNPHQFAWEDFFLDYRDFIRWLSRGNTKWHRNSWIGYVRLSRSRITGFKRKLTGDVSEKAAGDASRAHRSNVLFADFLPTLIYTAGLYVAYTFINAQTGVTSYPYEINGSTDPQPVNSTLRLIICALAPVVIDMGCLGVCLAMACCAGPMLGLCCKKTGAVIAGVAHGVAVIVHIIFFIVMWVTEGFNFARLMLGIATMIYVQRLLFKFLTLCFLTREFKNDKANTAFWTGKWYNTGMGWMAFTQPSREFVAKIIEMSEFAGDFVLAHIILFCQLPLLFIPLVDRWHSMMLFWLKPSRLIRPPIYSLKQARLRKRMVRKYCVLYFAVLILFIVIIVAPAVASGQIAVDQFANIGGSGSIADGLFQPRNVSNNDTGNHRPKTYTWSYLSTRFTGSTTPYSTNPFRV
Sequence (O42825 1-195 partner limits assumed): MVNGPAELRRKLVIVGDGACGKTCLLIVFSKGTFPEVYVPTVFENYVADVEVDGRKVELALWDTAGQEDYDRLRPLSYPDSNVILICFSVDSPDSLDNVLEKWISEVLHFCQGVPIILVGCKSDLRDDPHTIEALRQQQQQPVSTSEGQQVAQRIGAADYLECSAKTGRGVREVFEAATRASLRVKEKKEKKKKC
method_description: Glucan synthase inhibition (polymerization assay, 96-well, 3H-UDPG incorporation)
Format: biochemical
setup_conditions: glucan synthase prepared from Candida albicans MY1055; 60 min incubation at 22°C; read-out: Candida Albicans GS IC50 (ng/mL) (converted)
IC50 values for the compounds below.
Answer with a number only, understood to be in nM.

Solved entries (count: 3):
CC(C)[C@@H](C)[C@@]1(C)CC[C@]2(C)[C@H]3CC[C@@H]4[C@@]5(COC[C@@]4(C)[C@@H](OC[C@](C)(N)C(C)C)[C@H](n4ncnc4-c4ccncn4)C5)C3=CC[C@@]2(C)[C@@H]1C(=O)O: 4.18
CNC1(CO[C@H]2[C@H](n3ncnc3-c3ccncc3)C[C@@]34COC[C@]2(C)[C@@H]3CC[C@H]2C4=CC[C@@]3(C)[C@H](C(=O)O)[C@@](C)([C@H](C)C(C)C)CC[C@]23C)CCOCC1: 10.8
CN[C@@](C)(CO[C@H]1[C@H](n2ncnc2-c2ccncc2)C[C@@]23COC[C@]1(C)[C@@H]2CC[C@H]1C3=CC[C@@]2(C)[C@H](C(=O)O)[C@@](C)([C@H](C)C(C)C)CC[C@]12C)C(C)(C)C: 2.69

Read the next record carefully.
Summary for this compound, CCN[C@@](C)(CO[C@H]1[C@H](n2ncnc2C(N)=O)C[C@@]23COC[C@]1(C)[C@@H]2CC[C@H]1C3=CC[C@@]2(C)[C@H](C(=O)O)[C@@](C)([C@H](C)C(C)C)CC[C@]12C)C(C)C : IC50 is 15.5

###

study_target: glucan synthase (GS) (Candida albicans, UniProt O13428)
Construct: Extraction of GS activity from membranes was performed at a protein concentration of 5 mg/mL in extraction buffer; endogenous in cells; host or cells: Candida albicans MY1055 (membrane fraction, detergent extract, product entrapment)
method_description: Glucan synthase inhibition (polymerization assay, 96-well, 3H-UDPG incorporation)
Format: biochemical
setup_conditions: glucan synthase prepared from Candida albicans MY1055; 60 min incubation at 22°C; read-out: Candida Albicans GS IC50 (ng/mL) (converted)
Classification by IC50 | ranges: low: < 6 nM; moderate: ≥ 6 nM and < 20 nM; high: ≥ 20 nM

Below are worked cases with known answers.
CC(C)[C@@H](C)[C@@]1(C)CC[C@]2(C)[C@H]3CC[C@@H]4[C@@]5(COC[C@@]4(C)[C@@H](OC[C@](C)(N)C(C)(C)C)[C@H](n4ncnc4-c4ccncc4F)C5)C3=CC[C@@]2(C)[C@@H]1C(=O)O [Example 208]: low
CC(C)[C@@H](C)[C@@]1(C)CC[C@]2(C)[C@H]3CC[C@@H]4[C@@]5(COC[C@@]4(C)[C@@H](OCC4(N)CCOCC4)[C@H](n4ncnc4-c4ccncn4)C5)C3=CC[C@@]2(C)[C@@H]1C(=O)O [Example 256]: moderate
CCC(N)(CC)CO[C@H]1[C@H](n2ncnc2C(=O)NC)C[C@@]23COC[C@]1(C)[C@@H]2CC[C@H]1C3=CC[C@@]2(C)[C@H](C(=O)O)[C@@](C)([C@H](C)C(C)C)CC[C@]12C [Example 101]: moderate

Query: Would you mind sorting CC(C)[C@@H](C)[C@@]1(C)CC[C@]2(C)[C@H]3CC[C@@H]4[C@@]5(COC[C@@]4(C)[C@@H](OC[C@](C)(N)C(C)C)[C@H](n4ncnc4C(=O)N(C)C)C5)C3=CC[C@@]2(C)[C@@H]1C(=O)O [Example 50] into the appropriate category?
Response: moderate

###

study_target: glucan synthase (GS) (Candida albicans)
Construct: Extraction of GS activity from membranes was performed at a protein concentration of 5 mg/mL in extraction buffer; endogenous in cells; host or cells: Candida albicans MY1055 (membrane fraction, detergent extract, product entrapment)
method_description: Glucan synthase inhibition (polymerization assay, 96-well, 3H-UDPG incorporation)
Assay type: biochemical
setup_conditions: glucan synthase prepared from Candida albicans MY1055; 60 min incubation at 22°C; read-out: Candida Albicans GS IC50 (ng/mL) (converted)
measured_quantity: IC50
Record the result as a number with its unit.

CNC(=O)c1ncnn1[C@@H]1C[C@@]23COC[C@](C)([C@@H]2CC[C@H]2C3=CC(=O)[C@@]3(C)[C@H](C(=O)O)[C@@](C)([C@H](C)C(C)C)CC[C@]23C)[C@H]1OC[C@](C)(NC)C(C)C: 24.9 nM
CC(C)[C@@H](C)[C@@]1(C)CC[C@]2(C)[C@H]3CC[C@@H]4[C@@]5(COC[C@@]4(C)[C@@H](OC[C@](C)(N)C(C)C)[C@H](n4ncnc4-c4cccnc4)C5)C3=CC[C@@]2(C)[C@@H]1C(=O)O: 5.59 nM
CC(C)[C@@H](C)[C@@]1(C)CC[C@]2(C)[C@H]3CC[C@@H]4[C@@]5(COC[C@@]4(C)[C@@H](OC[C@](C)(N)C(C)(C)C)[C@H](n4ncnc4-c4ccc[n+]([O-])c4)C5)C3=CC[C@@]2(C)[C@@H]1C(=O)O: 2.68 nM
CC(C)NC(=O)c1ncnn1[C@@H]1C[C@@]23COC[C@](C)([C@@H]2CC[C@H]2C3=CC[C@@]3(C)[C@H](C(=O)O)[C@@](C)([C@H](C)C(C)C)CC[C@]23C)[C@H]1OC[C@](C)(N)C(C)(C)C: 20.3 nM
CC(C)[C@@H](C)[C@@]1(C)CC[C@]2(C)[C@H]3CC[C@@H]4[C@@]5(COC[C@@]4(C)[C@@H](OC[C@](C)(N)C(C)(C)C)[C@H](n4ncnc4-c4ccnnc4)C5)C3=CC[C@@]2(C)[C@@H]1C(=O)O: 0.274 nM

Summary for this molecule, CCCN[C@@](C)(CO[C@H]1[C@H](n2ncnc2C(=O)NC)C[C@@]23COC[C@]1(C)[C@@H]2CC[C@H]1C3=CC[C@@]2(C)[C@H](C(=O)O)[C@@](C)([C@H](C)C(C)C)CC[C@]12C)C(C)C : IC50 is 42 nM

Summary for this molecule, CNC1(CO[C@H]2[C@H](n3ncnc3C(N)=O)C[C@@]34COC[C@]2(C)[C@@H]3CC[C@H]2C4=CC[C@@]3(C)[C@H](C(=O)O)[C@@](C)([C@H](C)C(C)C)CC[C@]23C)CCOCC1 : IC50 is 8.45 nM

src = patent EP2326172B1
